# target-or-system: PI3K delta (Homo sapiens, UniProt O00329)
# Construct: for the full-length p110-d subunit are generated and fused by overlapping PCR; His tag (C); Tn5 (Trichoplusia ni) or TiniPro insect cells
# Sequence (O00329 with tags, fused parts or gaps limits assumed): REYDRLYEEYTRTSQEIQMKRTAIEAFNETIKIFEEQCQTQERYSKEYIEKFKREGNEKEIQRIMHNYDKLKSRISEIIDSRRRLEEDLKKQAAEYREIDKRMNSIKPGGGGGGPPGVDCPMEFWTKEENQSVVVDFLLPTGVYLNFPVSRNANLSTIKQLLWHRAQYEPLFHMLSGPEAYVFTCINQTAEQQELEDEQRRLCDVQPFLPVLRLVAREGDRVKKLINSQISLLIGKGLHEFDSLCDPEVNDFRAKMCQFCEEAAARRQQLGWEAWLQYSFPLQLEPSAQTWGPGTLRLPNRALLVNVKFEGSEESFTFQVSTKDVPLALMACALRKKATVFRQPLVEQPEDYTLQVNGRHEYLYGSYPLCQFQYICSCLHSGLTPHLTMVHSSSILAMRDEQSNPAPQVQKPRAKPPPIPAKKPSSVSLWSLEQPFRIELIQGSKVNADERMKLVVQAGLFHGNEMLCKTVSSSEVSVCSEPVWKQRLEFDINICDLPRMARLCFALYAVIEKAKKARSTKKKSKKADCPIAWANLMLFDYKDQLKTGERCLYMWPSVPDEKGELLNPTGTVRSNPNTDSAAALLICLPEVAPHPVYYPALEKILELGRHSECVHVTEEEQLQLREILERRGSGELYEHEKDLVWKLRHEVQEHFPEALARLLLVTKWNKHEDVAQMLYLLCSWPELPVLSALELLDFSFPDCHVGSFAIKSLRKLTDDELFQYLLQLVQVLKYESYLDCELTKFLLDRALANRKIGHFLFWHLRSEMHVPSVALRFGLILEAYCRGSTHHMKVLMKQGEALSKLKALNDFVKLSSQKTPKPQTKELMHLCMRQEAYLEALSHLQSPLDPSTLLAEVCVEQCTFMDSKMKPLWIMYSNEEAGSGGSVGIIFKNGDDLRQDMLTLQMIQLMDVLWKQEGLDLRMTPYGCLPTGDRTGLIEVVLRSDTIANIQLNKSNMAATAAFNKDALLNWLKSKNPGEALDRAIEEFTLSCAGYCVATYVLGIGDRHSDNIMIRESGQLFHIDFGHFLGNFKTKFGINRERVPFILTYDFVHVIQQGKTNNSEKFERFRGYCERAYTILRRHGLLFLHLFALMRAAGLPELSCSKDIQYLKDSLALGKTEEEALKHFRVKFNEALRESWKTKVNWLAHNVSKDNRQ
# measurement-protocol: PI3 kinase assay (Kinase-Glo luminescence), PI3K delta
# measurement-context: Enzymatic Data; read-out: PI3K delta IC50 [umol]
pIC50: −log10 of the molar value.
Label met for high-side pIC50 (at or above 7) and not met for low-side pIC50 (below it).

// inclusive: pIC50 at least 7? input: Nc1ncc(-c2cnc3ccc(-c4ccc(OCCCN5CCCC5=O)c(F)c4)nn23)cc1C(F)(F)F
not met

// inclusive: pIC50 at least 7? input: CNc1ncc(-c2cnc3ccc(-c4cnc(N)c(C(F)(F)F)c4)nn23)cn1
met

// inclusive: pIC50 at least 7? input: COc1cc(-c2cnc3ccc(-c4cnc(N)c(C(F)(F)F)c4)nn23)ccc1C(=O)N1CCN(Cc2ccccn2)CC1
met

Query molecule follows.
// inclusive: pIC50 at least 7? input: CC(C)(C)OC(=O)NCCCOc1ccc(-c2cnc3ccc(-c4cnc(N)c(C(F)(F)F)c4)nn23)cc1OC(F)(F)F
not met

###

# target-or-system: PI3K alfa (Homo sapiens, UniProt P42336)
# Construct: for the p110-a subunit (with a deletion of the first 20 amino acids); His tag (C); made in house; host or cells: baculovirus; Tn5 (Trichoplusia ni) or TiniPro insect cells
# Sequence (P42336 with tags, fused parts or gaps limits assumed): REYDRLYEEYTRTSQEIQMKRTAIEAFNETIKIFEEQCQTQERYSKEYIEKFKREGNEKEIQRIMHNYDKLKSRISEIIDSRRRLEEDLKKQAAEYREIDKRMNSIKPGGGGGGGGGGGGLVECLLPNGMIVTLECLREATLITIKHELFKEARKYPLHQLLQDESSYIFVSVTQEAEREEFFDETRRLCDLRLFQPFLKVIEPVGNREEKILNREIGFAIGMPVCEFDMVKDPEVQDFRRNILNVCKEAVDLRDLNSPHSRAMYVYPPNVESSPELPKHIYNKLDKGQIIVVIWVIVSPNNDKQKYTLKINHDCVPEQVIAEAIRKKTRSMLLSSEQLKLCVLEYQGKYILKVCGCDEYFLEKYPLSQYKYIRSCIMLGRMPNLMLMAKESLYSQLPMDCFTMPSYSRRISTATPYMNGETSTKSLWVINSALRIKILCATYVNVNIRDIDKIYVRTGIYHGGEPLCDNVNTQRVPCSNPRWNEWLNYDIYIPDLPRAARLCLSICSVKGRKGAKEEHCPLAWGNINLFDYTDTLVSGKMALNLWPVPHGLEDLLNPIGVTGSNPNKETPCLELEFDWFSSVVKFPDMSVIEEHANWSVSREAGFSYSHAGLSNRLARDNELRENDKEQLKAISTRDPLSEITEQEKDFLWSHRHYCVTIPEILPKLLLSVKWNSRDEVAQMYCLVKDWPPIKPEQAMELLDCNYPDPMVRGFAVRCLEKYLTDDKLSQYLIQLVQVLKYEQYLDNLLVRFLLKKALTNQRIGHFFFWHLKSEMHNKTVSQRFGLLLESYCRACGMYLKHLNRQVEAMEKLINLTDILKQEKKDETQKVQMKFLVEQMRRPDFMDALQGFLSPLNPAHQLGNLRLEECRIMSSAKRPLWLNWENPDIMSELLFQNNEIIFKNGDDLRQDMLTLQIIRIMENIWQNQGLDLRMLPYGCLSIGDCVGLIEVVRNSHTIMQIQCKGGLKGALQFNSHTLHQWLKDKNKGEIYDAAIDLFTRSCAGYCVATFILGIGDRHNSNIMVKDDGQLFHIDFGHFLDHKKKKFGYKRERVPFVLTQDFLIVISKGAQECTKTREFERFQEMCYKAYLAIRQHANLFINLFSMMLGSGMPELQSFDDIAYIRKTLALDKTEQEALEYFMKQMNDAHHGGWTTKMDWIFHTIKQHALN
# measurement-protocol: PI3 kinase assay (Kinase-Glo luminescence), PI3K alfa
# Assay type: biochemical
# measurement-context: Enzymatic Data; read-out: PI3K alfa IC50 [umol]
Would you kindly list pIC50 for each of these compounds?
Answers are plain numbers, as −log10 of the molar value.

// worked examples, pIC50 included
May I ask what pIC50 has been recorded for Nc1ncc(-c2ccc3ncc(-c4ccc(OCCCc5ccncc5)cc4)n3n2)cc1C(F)(F)F ?
6.97

May I ask what pIC50 has been recorded for Nc1ncc(-c2ccc3ncc(-c4ccc(C(=O)N5CCN(Cc6ccccn6)CC5)cc4)n3n2)cc1C(F)(F)F ?
7.72

May I ask what pIC50 has been recorded for CC(C)(C)OC(=O)NCCCOc1ccc(-c2ccc3ncc(-c4cnc(N)c(C(F)(F)F)c4)n3n2)cc1OC(F)(F)F ?
5.21

Pending compound:
May I ask what pIC50 has been recorded for COc1cc(-c2cnc3ccc(-c4cnc(N)c(C(F)(F)F)c4)nn23)ccc1C(=O)O ?
8.22

###

# target-or-system: PI3K beta (Homo sapiens, UniProt P42338)
# Construct: for the full-length p110-b subunit are generated and fused by overlapping PCR; His tag (C); Tn5 (Trichoplusia ni) or TiniPro insect cells
# Sequence (P42338 with tags, fused parts or gaps limits assumed): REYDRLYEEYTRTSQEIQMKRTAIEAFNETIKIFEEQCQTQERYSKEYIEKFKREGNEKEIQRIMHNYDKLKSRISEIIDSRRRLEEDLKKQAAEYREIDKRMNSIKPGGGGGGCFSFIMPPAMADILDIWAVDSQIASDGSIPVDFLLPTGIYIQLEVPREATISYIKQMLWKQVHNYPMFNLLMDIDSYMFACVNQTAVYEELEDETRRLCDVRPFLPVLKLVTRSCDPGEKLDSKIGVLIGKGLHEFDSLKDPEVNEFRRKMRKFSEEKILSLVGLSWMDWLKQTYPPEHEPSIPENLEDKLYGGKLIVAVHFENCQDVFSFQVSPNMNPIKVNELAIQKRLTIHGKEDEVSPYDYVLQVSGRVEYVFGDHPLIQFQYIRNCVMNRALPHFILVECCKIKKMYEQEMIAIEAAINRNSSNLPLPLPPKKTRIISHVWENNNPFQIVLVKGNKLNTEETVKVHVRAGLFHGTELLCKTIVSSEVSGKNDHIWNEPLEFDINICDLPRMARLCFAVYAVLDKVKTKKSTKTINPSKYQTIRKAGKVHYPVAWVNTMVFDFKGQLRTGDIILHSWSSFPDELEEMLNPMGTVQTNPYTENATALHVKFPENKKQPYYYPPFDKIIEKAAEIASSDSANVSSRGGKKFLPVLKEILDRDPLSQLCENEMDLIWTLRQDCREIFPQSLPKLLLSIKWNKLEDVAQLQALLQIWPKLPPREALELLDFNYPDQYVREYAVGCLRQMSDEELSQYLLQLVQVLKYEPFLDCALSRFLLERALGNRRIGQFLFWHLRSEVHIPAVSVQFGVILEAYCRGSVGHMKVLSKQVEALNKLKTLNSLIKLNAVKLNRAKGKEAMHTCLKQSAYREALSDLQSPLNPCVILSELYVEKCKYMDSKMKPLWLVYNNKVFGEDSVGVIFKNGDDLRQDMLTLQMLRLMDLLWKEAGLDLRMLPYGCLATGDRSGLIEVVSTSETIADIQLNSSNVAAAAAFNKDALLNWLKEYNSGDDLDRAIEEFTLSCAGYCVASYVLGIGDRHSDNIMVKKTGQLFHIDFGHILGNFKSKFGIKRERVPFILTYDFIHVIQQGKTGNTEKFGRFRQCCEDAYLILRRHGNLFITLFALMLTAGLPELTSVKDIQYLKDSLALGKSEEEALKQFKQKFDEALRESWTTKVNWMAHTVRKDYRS
# measurement-protocol: PI3 kinase assay (Kinase-Glo luminescence), PI3K beta
# measurement-context: Enzymatic Data; read-out: PI3K beta IC50 [umol]
Would you kindly list log10(IC50) for each of these molecules?
Response schema: value (number) is log10 of IC50 in units of µM.

// worked examples, log10(IC50) included
May I ask what log10(IC50) has been recorded for COc1ccc(-c2ccc3ncc(-c4ccc(N)nc4)n3n2)cc1OC [Example 34] ?
-0.14

May I ask what log10(IC50) has been recorded for COc1cc(-c2cnc3ccc(-c4cnc(N)c(C(F)(F)F)c4)nn23)ccc1OCCCN [Example 37] ?
-1.27

May I ask what log10(IC50) has been recorded for COC(=O)NCCCOc1ccc(-c2ccc3ncc(-c4cnc(N)c(C(F)(F)F)c4)n3n2)cc1OC [Example 50] ?
0.34

May I ask what log10(IC50) has been recorded for Nc1ncc(-c2ccc3ncc(-c4ccc(C(=O)N5CCN(Cc6ccncc6)CC5)cc4)n3n2)cc1C(F)(F)F [Example 136] ?
0.08

May I ask what log10(IC50) has been recorded for COc1cccc(-c2ccc3ncc(-c4cnc(N)c(C(F)(F)F)c4)n3n2)c1 [Example 77] ?
0.05

May I ask what log10(IC50) has been recorded for COc1cc(-c2cnc3ccc(-c4cnc(N)c(C(F)(F)F)c4)nn23)ccc1C(=O)N1CCN(CCc2ccccn2)CC1 [Example 133] ?
-0.52

May I ask what log10(IC50) has been recorded for NCCCOc1ccc(-c2cnc3ccc(-c4cnc(N)c(C(F)(F)F)c4)nn23)cc1 [Example 141] ?
-0.87

May I ask what log10(IC50) has been recorded for O=C1CCCN1CCOc1ccc(-c2ccc3ncc(-c4cnc5[nH]ccc5c4)n3n2)cc1F [Example 96] ?
0.67

May I ask what log10(IC50) has been recorded for COc1nc(-c2cnc3ccc(-c4cnc(N)c(C(F)(F)F)c4)nn23)cnc1N [Example 67] ?
-1.68

May I ask what log10(IC50) has been recorded for Nc1ncc(-c2ccc3ncc(-c4ccc(C(=O)NCCN5CCS(=O)(=O)CC5)cc4F)n3n2)cc1C(F)(F)F [Example 153] ?
-0.57

Could I get log10(IC50) for every one of these entries?
1. Nc1ncc(-c2cnc3ccc(-c4ccc(OCC5(CNC(=O)C6CC6)COC5)cc4)nn23)cc1C(F)(F)F [Example 172]
2. COc1cc(-c2cnc3ccc(-c4cnc(N)c(C(F)(F)F)c4)nn23)ccc1C(=O)N1CCN(Cc2ccccn2)CC1 [Example 116]
3. COc1cc(-c2ccc3ncc(-c4cnc(N)c(C(F)(F)F)c4)n3n2)ccc1OCCN [Example 59]
4. Nc1ncc(-c2cnc3ccc(-c4ccc(OCCNC(=O)C5CC5)cc4)nn23)cc1C(F)(F)F [Example 157]
5. Nc1cnc(-c2cnc3ccc(-c4cnc(N)c(C(F)(F)F)c4)nn23)cn1 [Example 66]
6. O=C1CCCN1CCCOc1ccc(-c2ccc3ncc(-c4cnc5[nH]ccc5c4)n3n2)cc1F [Example 91]

1: 0.02; 2: -1.38; 3: -1.62; 4: -0.07; 5: -2.52; 6: 0.88

Could I get log10(IC50) for every one of these entries?
1. Nc1ncc(-c2cnc3ccc(-c4ccc(OCC5(NC(=O)C6CC6)COC5)cc4)nn23)cc1C(F)(F)F [Example 146]
2. CC(C)(C)OC(=O)NCCn1cc(-c2ccc3ncc(-c4cnc(N)c(C(F)(F)F)c4)n3n2)ccc1=O [Example 69]
3. COc1cc(-c2cnc3ccc(-c4cnc(N)c(C(F)(F)F)c4)nn23)c(F)cc1C(=O)NCCCN1CCOCC1 [Example 159]
4. COc1ccc(-c2ccc3ncc(-c4ccc(NS(C)(=O)=O)cc4)n3n2)cc1OC [Example 44]
5. COc1ccc(-c2ccc3ncc(-c4cncc(C(F)(F)F)c4)n3n2)cc1OC [Example 53]

[0.40, 0.16, -1.44, 0.35, 0.09]

Could I get log10(IC50) for every one of these entries?
1. CCN(CC)CCNC(=O)c1ccc(-c2cnc3ccc(-c4cnc(N)c(C(F)(F)F)c4)nn23)cc1F [Example 108]
2. C=CS(=O)(=O)c1ccc(-c2cnc3ccc(-c4cnc(N)c(C(F)(F)F)c4)nn23)cc1 [Example 104]

1. -0.24
2. -0.84
